# system_under_test: T1, His-tagged ILT4 protein extracellular domain: ILT4-His (human, UniProt Q8N423 22-460)
# T1 construct: Expressed in 293 cells; also called human ILT4-His protein
# protocol_notes: screening of chimeric antibodies (ILT4 protein binding, cell binding, ILT4/HLA-G blocking)
measured_attribute: binding result

INSERT INTO measurements (binder, experimental_value) VALUES
  ('chimeric antibody ChP2-C4 (antibody, human IgG4 S228P, kappa, F234A L235A, V domains shown, Murine variable regions with hIgG4(LALA) and CL constant regions; also called M P2-C4) VH: QVQLKESGPGLVAPSQSLSITCTVSGFSLSTYAIGWVRQPPGKGLEWLGVIWTGGGTSYNSALKSRLSISKDNSKSQVFLKMNSLQTDDTARYYCARGDYGPFAYWGQGTLVTVSS VL: DIVMTQSHKFMSTSLGDRVSISCKASQDVSIAVAWYQQKAGQSPKLLIYSASYRHTGVPDRFTGSGSGTDFTFTISSVQAEDLAVYYCQQHYSTPFTFGSGTKLEIKR', 'binds'),
  ('chimeric antibody ChP2-F4 (antibody, human IgG4 S228P, kappa, F234A L235A, V domains shown, Murine variable regions with hIgG4(LALA) and CL constant regions; also called M P2-F4) VH: EVQLVESGGGLVKPGGSLKLSCAASGFTFSDYGMHWVRQAPEKGLEWVAYISSGSRIIYYADTVKGRFTISRDNAKNTLFLQMTSLRSEDTAMYSCARFYNYAHYTMDYWGQGTSVTVSS VL: DIVMTQSHKFMSTSVGDRVSITCKASQDVSTAVAWYQQKPGQSPKLLIYSASYRYTGVPDRFTGSGSGTDFTFTISSVQAEDLTLYYCQHHYSTPPTFGGGTKLEIKR', 'binds');
